Test system: TO-3-N3-2 (biotin conjugate)
Experiment: pull-down binding Z-score (relative to library population); higher = stronger binding
Conditions: RNA library: Library-2
Exercise: for every item that follows, state its recorded pull-down binding Z-score.
Enter a number only.

Give pull-down binding Z-score (TO-3-N3-2 (biotin conjugate)) of the following sequence: UAUAGUGUGUUUGAUUUGCACUGUA [hsa-mir-4703]
-0.198

Give pull-down binding Z-score (TO-3-N3-2 (biotin conjugate)) of the following sequence: GGAGACACUUUCACUAUAUAUAGUGGCUCC [hsa-mir-3156-2]
-0.571

Give pull-down binding Z-score (TO-3-N3-2 (biotin conjugate)) of the following sequence: GAUGUUCUUGUUAACAACUAAACGAACAAUGUUUGUUUUUCUUGUUUUAUUGCCACUAGUCUCUAGUCAGUGUGUUAAUCUUACAACCAGAACUC [DMSMaPseq_invitro_SARS-CoV-2_Multi_63_ComplexLevel_1]
0.256

Give pull-down binding Z-score (TO-3-N3-2 (biotin conjugate)) of the following sequence: `GUGCCAUCAAAUUGGAUGACAAAGAUCCAAAUUUCAAAGAUCAAGUCAUUUUGCUGAAUAAGCAUAUUGACGCAU`
-0.165

Give pull-down binding Z-score (TO-3-N3-2 (biotin conjugate)) of the following sequence: AUCUGAAUGAUCUCAGC [hsa-mir-626]
0.105

Give pull-down binding Z-score (TO-3-N3-2 (biotin conjugate)) of the following sequence: `UCAUUAAUUGA`
-0.664

Give pull-down binding Z-score (TO-3-N3-2 (biotin conjugate)) of the following sequence: GAUAACAACUUC [SHAPE_invitro_SARS-CoV-2_Motif_16]
0.0515

Give pull-down binding Z-score (TO-3-N3-2 (biotin conjugate)) of the following sequence: UCAGUUUUGUAGCAUCAAAACU [hsa-mir-4521]
-0.161

Give pull-down binding Z-score (TO-3-N3-2 (biotin conjugate)) of the following sequence: UGAGCAUUCUAGCAGCAGUUUGAUGAUCA [hsa-mir-6516]
-0.419

Give pull-down binding Z-score (TO-3-N3-2 (biotin conjugate)) of the following sequence: `UCCUAAAGAGGA`
-0.431

Give pull-down binding Z-score (TO-3-N3-2 (biotin conjugate)) of the following sequence: GUCUUACACCGUGCGGCACAGGCACUAGUACUGAUGUCGUAUACAGGGCUUUUGAC [DMSMaPseq_invitro_SARS-CoV-2_Motif_242]
0.0142

Give pull-down binding Z-score (TO-3-N3-2 (biotin conjugate)) of the following sequence: GCUGCCAUCUCCCACUGGCUGC [hsa-mir-4736]
-0.495

Give pull-down binding Z-score (TO-3-N3-2 (biotin conjugate)) of the following sequence: `GUUGAAGUUGUUGAUAAGUACUUUGAUUGUUACGAUGGUGGCUGUAUUAAUGCUAACCAAGUCAUCGUCAACAACCUAGACAAAUCAGCUGGUUUUCCAUUUAAU`
-0.0144

Give pull-down binding Z-score (TO-3-N3-2 (biotin conjugate)) of the following sequence: AAGAAAGUUGAUGGUGUUGUCCAACAAUUACCUGAAACUUACUU [DMSMaPseq_invitro_SARS-CoV-2_Motif_358]
-0.423

Give pull-down binding Z-score (TO-3-N3-2 (biotin conjugate)) of the following sequence: UGUUCAUUCACAUGAUCAUAAGUGGACA [hsa-mir-4643]
0.169

Give pull-down binding Z-score (TO-3-N3-2 (biotin conjugate)) of the following sequence: GCCGAAUACCAUAAUGAAUCUGGC [SHAPE_invitro_SARS-CoV-2_Motif_29]
-0.529

Give pull-down binding Z-score (TO-3-N3-2 (biotin conjugate)) of the following sequence: UCAGAUAUUUAAGUUAACAGUAUUUGA [hsa-mir-580]
-0.347

Give pull-down binding Z-score (TO-3-N3-2 (biotin conjugate)) of the following sequence: UCUAUUAAAAUAUAAUGA [DMSMaPseq_invitro_SARS-CoV-2_Motif_395]
-0.157

Give pull-down binding Z-score (TO-3-N3-2 (biotin conjugate)) of the following sequence: `CUCCAAAAAGAG`
-0.675

Give pull-down binding Z-score (TO-3-N3-2 (biotin conjugate)) of the following sequence: CUGCAGAACAUUGCAG [hsa-mir-4310]
-0.408

Give pull-down binding Z-score (TO-3-N3-2 (biotin conjugate)) of the following sequence: GCAUAAAAACAACUUUUGGGGGACAGGUAUGUUUUCUUGC [hsa-mir-5047]
2.38

Give pull-down binding Z-score (TO-3-N3-2 (biotin conjugate)) of the following sequence: AGAGAUGAGCAUAAAGUUUUU [hsa-mir-6086]
-0.12

Give pull-down binding Z-score (TO-3-N3-2 (biotin conjugate)) of the following sequence: UGGGUUGGGUUGGGUUGGGUUGGGUUGGGU [G4_r(UGGGU)6]
10.2

Give pull-down binding Z-score (TO-3-N3-2 (biotin conjugate)) of the following sequence: UCCUCUCCUGGUCUGGGAGGAUAGAAGAGAGGA [hsa-mir-5191]
-0.219

Give pull-down binding Z-score (TO-3-N3-2 (biotin conjugate)) of the following sequence: `AAAUUCUUGGAACUGUUUCUUGGAAUUU`
-0.163

Give pull-down binding Z-score (TO-3-N3-2 (biotin conjugate)) of the following sequence: CAUCAAAACCAAGCAAGAGGUCAUUUAUUGAAGAUCUACUUUUCAACAAAGUGACACUUGCAGAUG [DMSMaPseq_invitro_SARS-CoV-2_Motif_426]
-0.0955

Give pull-down binding Z-score (TO-3-N3-2 (biotin conjugate)) of the following sequence: GAAGAAGAAGAAGAAGAAGAAGAAGAAGAAGAAGAAGAAGAAGAAGAA [r(GAA)16]
3.35

Give pull-down binding Z-score (TO-3-N3-2 (biotin conjugate)) of the following sequence: AGCAUCUGAAUGGGUACAGUUGUUGU [hsa-mir-6818]
-0.0469

Give pull-down binding Z-score (TO-3-N3-2 (biotin conjugate)) of the following sequence: CUUGCGGGGCCUUCGCCGCACACAAG [hsa-mir-99b]
-0.148

Give pull-down binding Z-score (TO-3-N3-2 (biotin conjugate)) of the following sequence: `CAUCAACCAUAUGUAGUUGAUG`
-0.283
